Sourced from patent US11021486B2

Tested on: A375 cells
Assay Notes: Cell viability experiment (Cell Titer-Glo), A375
Format: cell-based
Assay Setup: Homo sapiens, A-375, 72 h, A375 cells, 3 days incubation; read-out: A375 IC50
Observable: pIC50
// pIC50: -log10(molar conc.)

These recorded examples may help you get a feel for the data.
{"columns": ["Molecule", "Test Result"],
 "data": [
  ["COCCCn1c(C)cc2oc(=O)c(C)c(Nc3ccc(I)cc3F)c2c1=O [WX057]", 7.62],
  ["Cc1c(Nc2ccc(I)cc2F)c2c(=O)n(C3CC3)c(C)c(-c3cccc(NS(=O)(=O)C4CC4)c3)c2oc1=O [WX089]", 9.33],
  ["Cc1c(Nc2ccc(I)cc2F)c2c(=O)n(C3CC3)c(C)c(-c3cccc(N(S(C)(=O)=O)S(C)(=O)=O)c3)c2oc1=O [WX067]", 7.60],
  ["CC(=O)Nc1cccc(-c2c(C)[nH]c(=O)c3c(Nc4ccc(I)cc4F)c(C)c(=O)oc23)c1 [WX049]", 8.51]
]}

Quick one: pIC50 of CC(=O)Nc1cccc(-c2c(C)n(CC(O)CO)c(=O)c3c(Nc4ccc(I)cc4F)c(C)c(=O)oc23)c1 (stereo not shown) [WX058] ?
7.04

Requested read-out: pIC50. Entry: Cc1c(NS(C)(=O)=O)cccc1-c1c(C)n(C2CC2)c(=O)c2c(Nc3ccc(I)cc3F)c(C)c(=O)oc12 (single isomer, unassigned) [WX113]
9.43

Which measured pIC50 value corresponds to COC(OC)C(=O)Nc1cccc(-c2c(C)n(C3CC3)c(=O)c3c(Nc4ccc(I)cc4F)c(C)c(=O)oc23)c1 [WX081] ?
8.28
